B1: TPR t1 (parent)
chain: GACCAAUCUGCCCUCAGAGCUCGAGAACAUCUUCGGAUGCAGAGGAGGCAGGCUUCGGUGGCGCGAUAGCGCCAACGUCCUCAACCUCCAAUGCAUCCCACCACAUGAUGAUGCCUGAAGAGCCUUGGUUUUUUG

Variants of: B1
Experiment: polymerase ribozyme fitness, log enrichment relative to wild type (log ratio); higher = more active; in vitro selection for triplet polymerase activity
RECORDED METRIC: polymerase ribozyme fitness (log ratio)

INSERT INTO measurements (seq_text, value_reported) VALUES
  ('GACCAAUCUGCCCUCAGAGCUCGAGAACAUCUUCGGAUGCAGAGGAGGCAGGCUUCGGUGGCUCGAUAGCGCCAACGUCCUCAACCUCCAAUGCAUCCCACCGCAUGAUGAUGCCUGAAGAGCCUUGGUUUUUUG [G63U A103G]', -5.82),
  ('GACCAAUCUGCCCUCAGAGCUCGAGAACAUCUUCGGAUGCAUAGGAGGCAGGCUUCGGUGGCGCGAUAGCGCCAACGUCCUCAACCUUCAAUGCAUCCCAGCACAUGAUGAUGCCUGAAGAGCCUUGGUUUUUUG [G42U C88U C101G]', -3.94),
  ('GACCAAUGUGCCCUCAGAGCUCGAGAACAUCUUCGGAUGCAGAGGAGGCAGGCUUCGGUGGCGCGAUAGCGCCAACGUACUCAACCUCCAAUGCAUCCCACCACAUGAUGAUGCCUGAAGAGCCUUGGUUUUUUG [C8G C79A]', -0.929),
  ('GACUAAUCUGCCCUCAGAGCUCGAGAACAUCUUCGGAUGCAGAGGAGGCAGGCUUCGGUCGCGCGAUAGCGCCAACGUCCUCUCCAUCCAAUGCAUCCCACCACAUGAUGAUGCCUGAAGAGCCUUGGUUUUUUG [C4U G60C A83U A84C C86A]', -2.24),
  ('GACCAAUCUGCCCUCAGAGCUCGAGAACAUCUUCGGAUGCAGAGGAGGCAGGCUUCGGUGGCGCGAUAGCGCCAACGUCCUCAACCUGCAAUGCAUACCACCAUAUGAUGAUGCCUGAAGAGCCUUGGUUUUUUG [C88G C97A C104U]', -5.23),
  ('GACCUAUCUGCCCUCAGAGCUCGAGAACAUCUUCGGAUGCAGAGGAGGAAGGCUUCGGUGGCGCGAUAGCGCCAACGUCCUCAACCUCCAAUGCAUCCCACCACAUGAUGAUGCCUGAAGAGCCUUGGUUUUUUG [A5U C49A]', -2.06),
  ('GACCAAUCUGCCCUUAGAGCUCGAGAACAUCUUCGGAUGCAGAGGAGGCAGGCUUCGGUGGCGCGAUAGCGCCAACGUCCUCCACCUCCAGUGCAUCCCACCACAUGAUGGUGCCUGAAGAGCCUUGGUUUUUUG [C15U A83C A91G A111G]', -2.96),
  ('GACCAAUCUGCCCUCAGAGCUCGAGAACAUCUUCGGAUGCAGAGGAAGCAGGCUUUGGUGGCGCGAUAGCGCCAACGUCCUCAACCUCCAAUGUAUCCCACCACAUGAUGAUGCCUGAAGAGCCUUGGUUUUUUG [G47A C56U C94U]', -1.1),
  ('GACCAAUCUGCUCUCAGAGCUCGAGAACAUCUUCGGAUGCAGAGGUGGCAGGCUUCGGUGGCGCGAUAGCGCCAACGUCCUCAACCUCCAAUGCAUCCCACCACAUGAUGAUGCCUGAAGAGCCUUGGUUUUUUG [C12U A46U]', -0.688),
  ('GACCAAUCUGCCCUCAGAGCUCGAGAACAUCUUCGGAUGCAGAGGAGGCAGGCUUCGACGGCGCGAUAGGGCCAACGUCCUCAACCUCCAAUGCAUCCCACCACAUGAUGAUGCCUGAAGAGCCUUGGUUUUUUG [G58A U59C C70G]', -4.95),
  ('GACCAAUCUGCCCUCAGAGCUCGAGAACAUCUUCGGAUGCAGAGGAGGCAGGCUUCGGUAGCGCGAUAGCGCCAACGUCCUCAACCUCCCAUGCAUCCCACCACAUGAUGAUGCCUGAAGAGUCUUGGUUUUUUG [G60A A90C C123U]', 0.00477),
  ('GACCAAUCCGCCCUCAGAGCUCGAGAACAUCUUCGGAUCCAGAGGAGGCAGGCUUCGGUGGCGCGAUAGCGCCAACGUCCUCAACCUCCAAUGCAUCCCACCACAUGAUGAUGCCUGAAGAGCCUUGCUUUUUUG [U9C G39C G128C]', -1.84),
  ('GACCAAUCUGCCUUCAGAGGUCGAGAACAUCUUCGGAUGCAGAGGAGGCAGGCUUCGGUGGCGAGAUAGCGCUAACGUCCUCAACCUCCAAUGCAUCCCACCAAAUGAUUAUGCCUGAAGUGCCUUGGUUUUUUG [C13U C20G C64A C73U C104A G110U A121U]', -7.37),
  ('GACCAAUCUGCCCUCUGAGCUCGAGAACAUCUUCGGAUGCAGAGGAGGCAGGCUUCGGUGCCGCGAUAGCGCCAACGUCCUCAACCUCCAAUGCAUCCCACCACAUGAUGAUGCCUGAAGAGCCUUGGUUUUUUG [A16U G61C]', -2.41),
  ('GACCAAUCUGCUCUCAGAGCUCGAGAACAUCUUCGGAUGCAGAGGAGGCUGGCUUCGGGGGCGCGAUAGCGCCAACGUCCUCAACCUCCAAUGCAUCCCACCACAUGAUGAUGCCUGAUGAGCCUUGGUUUUUUG [C12U A50U U59G A119U]', -0.98),
  ('GACCAAUCUGCCCUCAGAGCUCGAGAACAUCCUCGGAUGCAGAGGAGGCAGGCCUCGGUGGCGCGAUAGCCCCAACGUCCUCAACCUCCAAUGCCUCCCACCACAUGAUGAUGCCUGAAGAGCCUUGGUUUUUUG [U32C U54C G71C A95C]', -3.01),
  ('GACCAAUCUGCCCUCAGAGCUGGAGAACAUCUUCGGAUGCAGAGGAGGCAGGCUUCGGUGGCGCGAUGGCGCCAACGUCCUCAACCUCCAAUGCAUCCCACCACAUGAUGAUGCCUGAAGAGCCUUGGUUUUUUG [C22G A68G]', -5.5),
  ('GACCAAUCUGCCCUCAGAGCUCGAGAACAUCUUCGGAUGCAGAGGAGGCAGGCUUCGGUGGCGCGAUACCGCCAACGUCCGUAACCUCCAAUGCAUCCCACCAUAUGAUGAGGCCUGAAGAGCCUUGGUUUUUUG [G69C U81G C82U C104U U112G]', -2.5),
  ('GAUCAAUCUGCCCUCAGAGCUCGAGAAAAUCUUCGGAUGCGGAGGAGGCAGGCUUUGGUGGCGCGAUAGCGCCAACGUCCUCAACCUCCAAUGCAUCCCACCACAUGAUGAUGCCUGAACAGCCUUGGUUUUUUG [C3U C28A A41G C56U G120C]', -5.25),
  ('GACCAAUCUGCCCUCAGAGCUCGAGAACAUCUUCGGAUGCAGAGGAGGCAGGCUUCGGUGGCGCGAUAGCGCCAACGUCCUCAACCUCCUAUGCAUCCCUCCACAUGAUGAUGCCUGAAGAGCCUUGGUUUUUUG [A90U A100U]', -2.77),
  ('GACCAAUCUGCCCUCAGAGCUCGAGAACAUCUUCGGAUGCAGAGGAGGCAGGCUUCUGUGGCGCGAUAGCGCCAACUUCCUCAACCUCCAAUGCAUCCCACCACAUGAUGAUGCCUGAAGAACCUUGGUUUUUUG [G57U G77U G122A]', -1.42),
  ('GACCAAUCUGCCCUCAGAUCACGAGAACAUCUUCGGAUGCAGAGGACGCAGGCUUCGGUGGCGCGAUAGCGCCAACGUCCUCAACCUCCCAUGCAUCCCACCACAUGAUGAUCCCUGAAGAGCCUUGGUUUUUUG [G19U U21A G47C A90C G113C]', -4.49);
